Source: patent US9815835B2

Quick reference for log10(IC50) among some compounds
Tested system: cap-dependent endonuclease (RNP fraction containing PB1•PB2•PA complex) (Influenza A virus, UniProt P15659)
Experiment notes: biochemical
Test conditions: RNP from A/WSN/33 virus, capped Cy3/BHQ2 30mer RNA substrate, 60 minutes at room temperature; read-out: CEN IC50
// do not treat as linear: log10 of IC50, unit nM

Take a look at these entries with their results.
INSERT INTO measurements (compound, result_type, numeric_readout) VALUES
  ('CC(C)[C@@H](CO)N1CN(C2c3ccccc3CSc3ccccc32)n2ccc(=O)c(O)c2C1=O (some centres unmarked)', 'log10(IC50)', 1.67),
  ('COCCCC1N(C(C)C)C(=O)c2c(O)c(=O)ccn2N1C1c2ccc(Cl)cc2CCc2cc(Cl)ccc21 (centres unmarked)', 'log10(IC50)', 1.76),
  ('CC(C)N1CN(C2c3ccccc3CSc3ccccc32)n2cc(CF)c(=O)c(O)c2C1=O (centres unmarked)', 'log10(IC50)', 1.18),
  ('COC[C@H](C)N1CN(C2c3ccccc3CSc3ccccc32)n2ccc(=O)c(O)c2C1=O (some centres unmarked)', 'log10(IC50)', 1.68),
  ('O=C1c2c(O)c(=O)ccn2C(C2c3ccccc3CCc3ccccc32)CN1c1ccccn1 (centres unmarked)', 'log10(IC50)', 2.14),
  ('O=C1c2c(O)c(=O)ccn2N(C2c3ccccc3CCc3ccccc32)CN1C1CC1', 'log10(IC50)', 1.57),
  ('NN1CC(C2c3ccccc3CCc3ccccc32)n2ccc(=O)c(O)c2C1=O (centres unmarked)', 'log10(IC50)', 1.81),
  ('CN(C)CCN1CC(C2c3ccccc3CCc3ccccc32)n2ccc(=O)c(O)c2C1=O (centres unmarked)', 'log10(IC50)', 2.19),
  ('O=C1c2c(O)c(=O)ccn2N(C2c3ccccc3CSc3ccccc32)CN1CC(F)F (centres unmarked)', 'log10(IC50)', 1.54),
  ('O=C1c2c(O)c(=O)ccn2N(C2c3ccccc3CSc3ccccc32)CN1C1CCC(F)(F)CC1 (centres unmarked)', 'log10(IC50)', 2.28);

Task: Find the recorded log10(IC50) belonging to COCCN1CN(C2c3ccccc3COc3c(Cl)cccc32)n2ccc(=O)c(O)c2C1=O (centres unmarked) and report it.
Output: 1.75

Task: Follow-up item: CC(C)N1CN(C2c3ccccc3CCc3ccsc32)n2ccc(=O)c(O)c2C1=O (centres unmarked)
Output: 2.12

Task: Follow-up item: CC(C)c1cccc2c1OCc1ccccc1C2N1CN(C(C)C)C(=O)c2c(O)c(=O)ccn21 (centres unmarked)
Output: 2.47

Task: Follow-up item: CC(C)N1CN(C2c3ccccc3CSc3cc(Cl)ccc32)n2ccc(=O)c(O)c2C1=O (centres unmarked)
Output: 1.96

###

Tested system: cap-dependent endonuclease (RNP fraction containing PB1•PB2•PA complex) (Influenza A virus, UniProt P15659)
Experiment notes: biochemical
Test conditions: RNP from A/WSN/33 virus, capped Cy3/BHQ2 30mer RNA substrate, 60 minutes at room temperature; read-out: CEN IC50
Result type: IC50 (nM)
Number in nM, nothing else.

Take a look at these entries with their results.
INSERT INTO measurements (molecule, result_type, unit_abbreviation, numeric_readout) VALUES
  ('C[C@@H](N1CN(C2c3ccccc3COc3c(Cl)cccc32)n2ccc(=O)c(O)c2C1=O)C(F)(F)F (stereo partly shown)', 'IC50', 'nM', 46),
  ('CN(CCN1CN(C(c2ccccc2)c2ccccc2)n2ccc(=O)c(O)c2C1=O)S(=O)(=O)c1ccccc1', 'IC50', 'nM', 166),
  ('Cc1noc(CN2CN(C3c4ccccc4CSc4ccccc43)n3ccc(=O)c(O)c3C2=O)n1 (stereo not shown)', 'IC50', 'nM', 57),
  ('CCOCCN1CN(C2c3ccccc3CCc3ccccc32)n2ccc(=O)c(O)c2C1=O', 'IC50', 'nM', 18),
  ('O=C1c2c(O)c(=O)ccn2C(C(c2ccccc2)c2ccccc2)N2CCCCN12 (stereo not shown)', 'IC50', 'nM', 61);

Task: Find the recorded IC50 belonging to O=C1c2c(O)c(=O)ccn2N(C2c3ccccc3CSc3ccccc32)CN1[C@@H]1CCN(CCOCc2ccccc2)C1 (stereo partly shown) and report it.
Output: 161

Task: Follow-up item: C[C@H](N1CN([C@H]2c3cc(F)ccc3CSc3ccccc32)n2ccc(=O)c(O)c2C1=O)C(F)(F)F
Output: 96

Task: Follow-up item: CC(CO)N1CN(C(c2ccccc2)c2ccccc2)n2ccc(=O)c(O)c2C1=O (stereo not shown)
Output: 140

Task: Follow-up item: CN1CC[C@@H](N2CN(C3c4ccccc4CSc4ccccc43)n3ccc(=O)c(O)c3C2=O)C1 (stereo partly shown)
Output: 154

Task: Follow-up item: CCN1CN(C2c3ccccc3CSc3c(Cl)cccc32)n2ccc(=O)c(O)c2C1=O (stereo not shown)
Output: 26

Task: Follow-up item: Cc1cc(CN2CN(C3c4ccccc4CCc4ccccc43)n3ccc(=O)c(O)c3C2=O)no1
Output: 52

Task: Follow-up item: CCN1CN(C2c3ccccc3CSc3ccccc32)n2ccc(=O)c(O)c2C1=O (stereo not shown)
Output: 40

Task: Follow-up item: C[C@@H](N1CN([C@H]2c3cccc(F)c3CSc3c(F)cccc32)n2ccc(=O)c(O)c2C1=O)C(F)(F)F
Output: 16
